# Tm annotations
test: melting temperature; fluorescence melt of hairpins on a sequencing array, two-state fit, raised by 9.35 °C to match UV melts; conditions: sodium 0.088 M
Kindly answer with a numeric value in °C, unit omitted.

// worked examples, Tm included
Reported Tm of GCGATAAATCGC ((((....)))) : 49.8

Reported Tm of GACTCCGGAAACAGAGTC (((((.(....).))))) : 40.1

Reported Tm of GATCATGCCATGATC ((((((...)))))) : 50.9

Further cases:
Reported Tm of GCTTAGCGAAAGCAGAGC (((..((....))..))) : 50

Reported Tm of GATCTTCGTAAAGATC ((((((....)))))) : 44.9

Reported Tm of GTACTCGAAAGAGTGTAC ((((((....)))..))) : 35.9

Reported Tm of GCACCGCGAAAGCGCGGC ((..(((....)))..)) : 45

Reported Tm of GTCTCTGAAAAGAGAC ((((((....)))))) : 58.1

Reported Tm of GATCCCTCGTGGGATC ((((((....)))))) : 62.2

Reported Tm of GAAGGCCGAAAGGCTTTC (((.(((....))).))) : 54.2

Reported Tm of GCGTCCACGAAAGTGCGC (((..(((....)))))) : 48.6

Reported Tm of GGAAGCGCGAAAGCGTCC (((..(((....)))))) : 37.3

Reported Tm of GTACAACCGAAAGGTTAC (((..(((....)))))) : 29.8

Reported Tm of GAGCCCGAAAGGGTGCTC ((((((....)))..))) : 52.1

Reported Tm of GTTGGAGGAAACTCCGAC ((.((((....)))).)) : 52.8

Reported Tm of GATCTTTCCAAAGATC ((((((....)))))) : 47.3

Reported Tm of GTGAGAGAAATCTCAC ((((((....)))))) : 51.7

Reported Tm of GTTCACGAAAGTGTTAAC ((((((....)))..))) : 28

Reported Tm of GATCTCGGGAGAGATC ((((((....)))))) : 63.2

Reported Tm of GACGTTGCGAAAGCAGTC (((..(((....)))))) : 49.9

Reported Tm of GCTATGGGAAACCACAGC (((.(((....))).))) : 38.6

---

# folding enthalpy annotations
assay: folding enthalpy; higher = less favourable; fluorescence melt of hairpins on a sequencing array, two-state fit; conditions: sodium 0.088 M
Kindly answer with a numeric value in kcal/mol, unit omitted.

Reported folding enthalpy of GCAGAGCGAAAGCAGTGC (((..((....))..))) : -15.1

Reported folding enthalpy of GTTCGTGGAAACACAAAC (((.(((....))).))) : -22.1

Reported folding enthalpy of GCCTAGCGAAAGCCAGGC ((((.((....)).)))) : -29.4

Reported folding enthalpy of GCATCTGGAAACAGATGC (((((((....))))))) : -47.9

Reported folding enthalpy of GCCCACGGAAACGCGAGC ((.(.((....)).).)) : -14.7

---

experiment: folding enthalpy; higher = less favourable; fluorescence melt of hairpins on a sequencing array, two-state fit; settings: sodium 0.088 M
# folding enthalpy annotations
Kindly answer with a numeric value in kcal/mol, unit omitted.

// worked examples, folding enthalpy included
Reported folding enthalpy of GATCATAGGGATGATC ((((((....)))))) : -34.1

Reported folding enthalpy of GATCCCGAGGGGGATC ((((((....)))))) : -35.3

Reported folding enthalpy of GTGATCGGAAACGATTAC ((.((((....)))).)) : -24.4

Reported folding enthalpy of GAAAAACGAAAGTTCTTC (((.(((....))).))) : -13.4

Reported folding enthalpy of GGGGACGGAAACACCCCC ((((..(....)..)))) : -22.6

Reported folding enthalpy of GCCTGCCCGAAAGGGGGC (((..(((....)))))) : -12.6

Reported folding enthalpy of GCATAGCGAAAGCAAGGC ((.(.((....)).).)) : -14

Reported folding enthalpy of GCATGGACGAAAGTCTGC (((..(((....)))))) : -19.1

Reported folding enthalpy of GCAACGCGAAAGCATGGC ((.(.((....)).).)) : -13.1

Reported folding enthalpy of GAATGCGGAAACGTGTTC (((..((....))..))) : -31.8

Further cases:
Reported folding enthalpy of GATAGAGGAAACTCTATC (((((((....))))))) : -42

Reported folding enthalpy of GATCTAGAGATAGATC ((((((....)))))) : -26.2

Reported folding enthalpy of GCGATGGCGAAAGCCCGC (((..(((....)))))) : -18.4

Reported folding enthalpy of GGGGCCGAAAGGCCGCCC ((((((....)))..))) : -9.69

Reported folding enthalpy of CGCCATCGGAAACGAGCG (((..(((....)))))) : -18.1

Reported folding enthalpy of GCAAGAACGAAAGTTTGC (((..(((....)))))) : -22.5

Reported folding enthalpy of GAAGGCGAAAGCCTCTTC ((((((....)))..))) : -21.5

Reported folding enthalpy of CGCGGGAAAGCCCGCG ((((((....)))))) : -37.1

Reported folding enthalpy of GATCGAGTCTCGATC ((((((...)))))) : -39.2

Reported folding enthalpy of GTCCAACGAAAGTTTGAC (((.(((....))).))) : -27.7

Reported folding enthalpy of GCACGACGAAAGTCCTGC (((.(((....))).))) : -26.8

Reported folding enthalpy of GATCTCTGAGGAGATC ((((((....)))))) : -43.4

---

assay: folding enthalpy; higher = less favourable; fluorescence melt of hairpins on a sequencing array, two-state fit; conditions: sodium 0.088 M
Property Name: folding enthalpy (kcal/mol)
Kindly answer with a numeric value in kcal/mol, unit omitted.

Reported folding enthalpy of GCGTAGCGAAAGCTGGGC ((..(((....)))..)) : -12.1

Reported folding enthalpy of GATCATGGTAATGATC ((((((....)))))) : -41.1

Reported folding enthalpy of GTGCGGGGAAACTCGCAC (((((.(....).))))) : -40.1

Reported folding enthalpy of GACAGCGAAAGCTGTGTC ((((((....)))..))) : -10.8

Reported folding enthalpy of GACTCGGGAAACCGGGTC (((.(((....))).))) : -40.6

Further cases:
Reported folding enthalpy of TGTGGGAAACCACA (((((....))))) : -20.5

Reported folding enthalpy of GCGACCGAAAGGTACCGC ((((((....)))..))) : -21.9

---

assay: melting temperature; fluorescence melt of hairpins on a sequencing array, two-state fit, raised by 9.35 °C to match UV melts; settings: sodium 0.088 M
Property Name: Tm (°C)
Kindly answer with a numeric value in °C, unit omitted.

Reported Tm of GGAAGGGGAAACCCTTCC (((((((....))))))) : 64.4

Reported Tm of GTCTATTCGAAAGAAGAC (((..(((....)))))) : 23.8

Reported Tm of GTTAGAGGAAACCCTAAC (((((.(....).))))) : 31.9

Reported Tm of GGTGGTGGAAACACCGTC (..((((....))))..) : 55.5

Reported Tm of GAAGAGGGAAACTTCTTC (((((.(....).))))) : 41

Reported Tm of GGCACCGAAAGGTCGCC ((((((....))).))) : 59.4

Reported Tm of GGTGACGGAAACGTTGCC ((..(((....)))..)) : 48.1

Reported Tm of GCCACATCGAAAGATGGC (((..(((....)))))) : 45.5

Further cases:
Reported Tm of GCGGGCGGCCGC ((((....)))) : 59.1

Reported Tm of GATGTGGCGAAAGCCATC (((..(((....)))))) : 38.5

Reported Tm of GGCAACGAAAGTTTAGCC ((((((....)))..))) : 43.5

Reported Tm of GATGACGAAAGTCCGATC ((((((....)))..))) : 26.8

Reported Tm of GAGCAACGAAAGTTACTC (((.(((....))).))) : 42.9

Reported Tm of GATCCCCAAAGGGATC ((((((....)))))) : 59.7

Reported Tm of GGTGCTCCGAAAGGAACC (((..(((....)))))) : 32.5
